Reference for the values: patent US20260216242A1

- test-target: T1, Human ALPP (leucine zipper) (human)
- T1 construct: Whole entry: ALPP fused with a cysteine stabilised leucine zipper and His tag; also called hALPP
- T1 chain: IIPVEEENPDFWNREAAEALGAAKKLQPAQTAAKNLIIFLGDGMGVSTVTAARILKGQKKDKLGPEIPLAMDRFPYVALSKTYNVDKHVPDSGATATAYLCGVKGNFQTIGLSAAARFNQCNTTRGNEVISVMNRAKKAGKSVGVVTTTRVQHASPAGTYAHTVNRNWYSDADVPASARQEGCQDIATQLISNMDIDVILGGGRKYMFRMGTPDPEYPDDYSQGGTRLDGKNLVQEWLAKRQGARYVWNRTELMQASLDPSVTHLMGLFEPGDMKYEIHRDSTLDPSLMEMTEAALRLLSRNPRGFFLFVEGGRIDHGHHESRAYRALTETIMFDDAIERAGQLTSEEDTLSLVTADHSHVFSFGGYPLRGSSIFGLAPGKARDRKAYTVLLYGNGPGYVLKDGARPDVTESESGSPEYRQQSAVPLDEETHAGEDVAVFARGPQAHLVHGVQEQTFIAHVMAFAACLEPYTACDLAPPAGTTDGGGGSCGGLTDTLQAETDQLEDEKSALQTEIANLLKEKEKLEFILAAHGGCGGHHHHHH
- measurement-description: BLI, antigen immobilised

[
  {
    "binder": "A05 His (VHH, not shown: small tags and cut ends, also called #249) VHH: QVQLVESGGGLVQAGASLTLSCAASGFTFNTRSIVWFRQAPGKEREAVSCISKVAGSTYYGDSVQGRFSSSTDNAKNTVSLQMNSLKPEDTAVYTCAASFAPNCYGWSVAANMEYWGEGTMVTVSS",
    "koff": "< 1e-07 s⁻¹"
  },
  {
    "binder": "E06 His (VHH, not shown: small tags and cut ends) VHH: QVHLVESGGGLVQAGGSLRLSCAASRRSFSEYAMGWFRQAPGKEREFVAAIGWSGVIEYADSVKGRFTISRDNAKDTVYLQMNSLKPEDTAVYYCAAGLGIRVVSQTPAYWGQGTQVTVSS",
    "koff": "< 1e-07 s⁻¹"
  },
  {
    "binder": "D11 (VHH, not shown: small tags and cut ends) VHH: QVQLVESGGGSVQAGGSLRLSCAASGPSLSNYAMGWFRQAPGKEREFVAGISWGGGRTSYTDSVKGRFTISRDNAKNTVYLQMNNLKPEDTGVYYCAGRYGRGRNVEYEYDYWGQGTMVTVSS",
    "koff": "< 1e-07 s⁻¹"
  },
  {
    "binder": "C05 (VHH, not shown: small tags and cut ends) VHH: QVQLVESGGGLVQAGGSLRLSCAASRRSFSEYAMGWFRQAPGKEREFVAAIGWSGVIEYADSVKGRFTISRDNAKDTVYLQMNSLKPEDTAVYYCAAGLGIRVVSQTPAYWGQGTQVTVSS",
    "koff": "< 1e-07 s⁻¹"
  },
  {
    "binder": "E10 His (VHH, not shown: small tags and cut ends, also called #265) VHH: QVQLVESGGGLVQAGGSLRLSCAVSGRALSDYNIGWFRQAPGKEREFVARKTWDGSSTRYDDSVKGRFTVSIEDAKNTAYLQMSSLKTEDTAVYYCAAGRYSRARGWEYDYWGQGTQVTVSS",
    "koff": "< 1e-07 s⁻¹"
  },
  {
    "binder": "H10 (VHH, not shown: small tags and cut ends) VHH: QVQLVESGGGSVQTGGSLRLSCAASGPSLSNYAMGWFRQAPGKEREFVAGISWGGGRTNYLDSVKGRFTISRDNAKNTMYLQMNSLKPEDAAVYYCAGRYGRGRDVEYEYDYWGQGTQVTVSS",
    "koff": "8.5e-06 s⁻¹"
  }
]
